molecules and their reported Rmax
# Assay System: HCV NS3/4A PR (S139A) (Hepatitis C virus subtype 1a, UniProt A8DG50, A1066T/I1043Q/I1044E/L1039E/L1040E/L1047Q/S1165A, form not given)
# Assay Comment: Biacore 8K binding kinetics of PRSIM binding molecules
# Experimental Conditions: 10 nM simeprevir present

Molecule	Rmax [RUs]
PRSIM_33: Tn3 PRSIM binding molecule, SEQ ID NO: 7 (protein, PRSIM_33) RLDAPSQIEVKDVTDTTALITWYPPGRWYDDIWYFELTYGIKDVPGDRTTIKLARGDDVYSIGNLKPDTEYEVSLISWGPDRGDRAGSNPAKITFKTGL	171.9
PRSIM_32: Tn3 PRSIM binding molecule, SEQ ID NO: 6 (protein, PRSIM_32) RLDAPSQIEVKDVTDTTALITWWSPRYYYASISGFELTYGIKDVPGDRTTIKLDYASNDYSIGNLKPDTEYEVSLISWNYGDWRYSSSNPAKITFKTGL	19.9
PRSIM_57: scFv specific for HCV NS3/4A PR (S139A):simeprevir complex, SEQ ID NO: 12 (protein, PRSIM_57) scFv: QVQLVQSGAEVKKPGSSVKVSCKASGGTFSSYAISWVRQAPGQGLEWMGGIIPIFGTANYAQKFQGRVTITADESTSTAYMELSSLRSEDTAVYYCARHTNYITVFDYWGQGTLVTVSSGGGGSGGGGSGGGGSAQSVLTQPPSASGTPGQRVTISCSGSSSNIGSNTVNWYQQLPGTAPKLLIYSNNQRPSGVPDRFSGSKSGTSASLAISGLQSEDEADYYCAAWDHHWEQVVFGGGTKLTVL	69.1
PRSIM_72: scFv PRSIM binding molecule, SEQ ID NO: 14 (protein, PRSIM_72) scFv: QVQLVQSGAEVKKPGSSVKVSCKASGGTFSSYAISWVRQAPGQGLEWMGGIIPIFGTANYAQKFQGRVTITADESTSTAYMELSSLRSEDTAVYYCARGMAHFYQFDLWGQGTLVTVSSGGGGSGGGGSGGGGSAQSVLTQPPSASGTPGQRVTISCSGSSSNIGSNTVNWYQQLPGTAPKLLIYSNNQRPSGVPDRFSGSKSGTSASLAISGLQSEDEADYYCAAGDHDHEHVVFGGGTKLTVL	33.4
